# viscosity listing for each entry below
# Protocol Conditions: 318.15 K; 100 kPa; Liquid; Capillary tube (Ostwald / Ubbelohde) method
± gives the expanded uncertainty stated by the source.
The answer consists of two parts: a number and, after it, its unit.

Record excerpt, results attached:
[[record]]
compound = "CCCCCCCCC [nonane]"
result_type = "viscosity"
result_value = "0.547 ± 0.011 mPa·s"

[[record]]
compound = "CCCCCCCCCC [decane]"
result_type = "viscosity"
result_value = "0.667 ± 0.011 mPa·s"

[[record]]
compound = "C1CC[C@H]2CCCC[C@@H]2C1 [trans-decahydronaphthalene]"
result_type = "viscosity"
result_value = "1.394 ± 0.013 mPa·s"


Kindly review the next compound as well.
Would you mind telling me what viscosity value was observed for CCCCCCCCCCC [undecane] ?
0.801 ± 0.012 mPa·s
